Answer each item with its documented melting point.

Problem: Which melting point value belongs to CC(CS(=O)(=O)c1ccccc1)C1CC=C2C3=C(CCC21C)C1(C)CCC(OC(=O)c2ccccc2)C(C)(C)C1CC3 (stereo not given) ?
Result: 175 to 188 °C

Problem: Which melting point value belongs to Nc1nnc(-c2cccc(OCc3c(Cl)cccc3Cl)c2)c(N)n1 ?
Result: 190 to 192 °C

Problem: Which melting point value belongs to N#Cc1c(N2CCCCC2)cc(-c2ccc3ccccc3c2)c2c1Cc1ccccc1-2 ?
Result: 142 to 144 °C

Problem: Which melting point value belongs to CCOC(=O)c1ccccc1-n1c(C)nc2cnccc21 ?
Result: 125 to 127 °C

Problem: Which melting point value belongs to CCOCn1c(Cl)c(C#N)c(Cl)c1-c1ccc(Cl)c(Cl)c1 ?
Result: 106 to 109 °C

Problem: Which melting point value belongs to CCCCCCCCCCCCCCCCCCOCC(CO)OC(=O)N1CCOCC1 (stereo not given) ?
Result: 48 to 49 °C

Problem: Which melting point value belongs to Cc1c(F)cccc1C(=O)Nc1ccc(C(=O)N2Cc3ccccc3Cc3ccccc32)cc1Cl ?
Result: 254 to 256 °C

Problem: Which melting point value belongs to CCCCc1ncc(CNC(C)(Cc2ccccc2)C(=O)O)n1Cc1ccccc1Cl (stereo not given) ?
Result: 157 to 159 °C

Problem: Which melting point value belongs to CCOc1c(Cl)ccc(-c2nc(C(=O)OC)c(Cl)c(S(C)(=O)=O)n2)c1F ?
Result: 164 to 166 °C

Problem: Which melting point value belongs to CCOC(=O)N1CCC(Nc2cc(OC)ccc2[N+](=O)[O-])CC1 ?
Result: 115 to 117 °C

Problem: Which melting point value belongs to CC(C)(C)OC(=O)N1[C@@H](C2CC2)[C@H](C(=O)O)OC1(C)C ?
Result: 104 to 108 °C

Problem: Which melting point value belongs to O=C1NCCc2[nH]c3c(F)ccc(F)c3c21 ?
Result: 221 to 223 °C

Problem: Which melting point value belongs to Cc1ccc(S(=O)(=O)n2ccnc2C(O)(c2ccccc2)c2ccccc2Cl)cc1 (stereo not given) ?
Result: 165 to 167 °C

Problem: Which melting point value belongs to ON=C1c2cc(Cl)ccc2-n2cccc21 ?
Result: 211 °C

Problem: Which melting point value belongs to N#CCc1ccc(N)c(Cl)c1 ?
Result: 77 °C

Problem: Which melting point value belongs to CC1(C)C=C(C#Cc2ccccn2)CC(C)(C)C1 ?
Result: 55 to 56 °C

Problem: Which melting point value belongs to CC(C)(C)C(NC(=O)c1ccc(Cl)cc1)NC(=NC#N)NCc1cccnc1 (stereo not given) ?
Result: 188 to 189 °C

Problem: Which melting point value belongs to O=C(O)c1ccc(-c2cc(-c3ccc(C(F)(F)F)cc3)on2)cc1 ?
Result: > 300 °C

Problem: Which melting point value belongs to CC(C)n1cnc2c(NCc3ccncc3)nc(F)nc21 ?
Result: 170 to 173 °C

Problem: Which melting point value belongs to CC(=O)OCCNC(=O)Nc1ccc2c(c1)C(c1ccccc1F)=NCC(=O)N2C ?
Result: 196 to 198 °C

---

Answer each item with its documented melting point.

Problem: Which melting point value belongs to COC(=O)C1CC(C#N)(c2ccc(OC)c3c2OCCO3)CCC1=O (stereo unspecified) ?
Result: 129 to 132 °C

Problem: Which melting point value belongs to CON=C(C(=O)OC)c1c(C)cccc1CBr ?
Result: 76 to 78 °C

Problem: Which melting point value belongs to COCCOc1ccc(C#CC2(O)CN3CCC2CC3)cc1Cl (stereo unspecified) ?
Result: 138 to 139 °C

Problem: Which melting point value belongs to CCOC(=O)c1nc(-c2cccc(C)c2)cn1C ?
Result: 176 to 177 °C

Problem: Which melting point value belongs to CN1CCN(CCCNc2ncc3c(n2)-c2ccccc2C(c2ccc(Cl)c(Cl)c2)C3)CC1 (stereo unspecified) ?
Result: 135 to 136 °C

Problem: Which melting point value belongs to Nc1ccc(C(=O)c2cccc(N)c2)cc1 ?
Result: 121 to 123 °C

Problem: Which melting point value belongs to CCCCCCCCCCc1nnn(CC(=O)O)n1 ?
Result: 83 to 86 °C

Problem: Which melting point value belongs to O=C(CCl)N1CCC(Cc2ccc(Cl)cc2)CC1 ?
Result: 70 °C

Problem: Which melting point value belongs to CC(C)(C)OC(=O)NC1CSCCNC1=O (stereo unspecified) ?
Result: 200 to 201 °C

Problem: Which melting point value belongs to CN1C(=O)CC[C@]2(C)c3ccc(-c4cccc(Cl)c4)cc3CC[C@@H]12 ?
Result: 158 to 165 °C

Problem: Which melting point value belongs to C=C(c1ccc(Br)cc1)c1ccc(OCCCC)cc1 ?
Result: 71.8 to 73 °C
